Biological target: hCA XII (Homo sapiens, UniProt O43570)
Sequence (O43570 25-354): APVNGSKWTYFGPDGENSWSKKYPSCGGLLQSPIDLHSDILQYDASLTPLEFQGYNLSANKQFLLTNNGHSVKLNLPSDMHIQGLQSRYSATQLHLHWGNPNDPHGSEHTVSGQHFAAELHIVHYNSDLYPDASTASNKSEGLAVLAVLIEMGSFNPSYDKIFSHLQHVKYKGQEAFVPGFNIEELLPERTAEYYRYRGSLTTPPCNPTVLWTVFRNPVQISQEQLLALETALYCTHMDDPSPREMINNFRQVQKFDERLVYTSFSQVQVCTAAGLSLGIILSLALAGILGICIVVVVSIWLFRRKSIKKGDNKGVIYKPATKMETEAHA
Assay: Stopped flow CO2 hydrase assay
Conditions: Ki hCA I / Ki hCA XII
Attribute: Selectivity ratio I/XII
REPORTED ENDPOINT: Selectivity ratio I/XII

[
  {
    "COMPOUND": "NS(=O)(=O)c1ccc(NC=CC(=O)c2ccc(NC=C3C(=O)Nc4ccccc43)cc2)cc1 [Compound 13a]",
    "TARGET OR SYSTEM": "hCA XII (Homo sapiens, UniProt O43570)",
    "OBSERVED MEASUREMENT": 2.64
  },
  {
    "COMPOUND": "NS(=O)(=O)N/C=C1/C(=O)Nc2ccccc21 [Compound 5, 3-(sulfamidmethylene)indoline-2-one]",
    "TARGET OR SYSTEM": "hCA XII (Homo sapiens, UniProt O43570)",
    "OBSERVED MEASUREMENT": 149.65
  },
  {
    "COMPOUND": "O=C1Nc2ccccc2C1=CNc1ccc(CNc2ccc(S(=O)(=O)Nc3ncccn3)cc2)cc1 [Compound 11b]",
    "TARGET OR SYSTEM": "hCA XII (Homo sapiens, UniProt O43570)",
    "OBSERVED MEASUREMENT": 1.06
  },
  {
    "COMPOUND": "NS(=O)(=O)OC=C1C(=O)Nc2ccccc21 [Compound 7, (2-Oxoindolin-3-ylidene)methyl sulfamate]",
    "TARGET OR SYSTEM": "hCA XII (Homo sapiens, UniProt O43570)",
    "OBSERVED MEASUREMENT": 46.89
  }
]
